So I've got a bunch of compounds here, and I need their pIC50 values.
# system_under_test: N-formyl peptide receptor 2 (Homo sapiens, UniProt P25090)
# Sequence (P25090 whole entry): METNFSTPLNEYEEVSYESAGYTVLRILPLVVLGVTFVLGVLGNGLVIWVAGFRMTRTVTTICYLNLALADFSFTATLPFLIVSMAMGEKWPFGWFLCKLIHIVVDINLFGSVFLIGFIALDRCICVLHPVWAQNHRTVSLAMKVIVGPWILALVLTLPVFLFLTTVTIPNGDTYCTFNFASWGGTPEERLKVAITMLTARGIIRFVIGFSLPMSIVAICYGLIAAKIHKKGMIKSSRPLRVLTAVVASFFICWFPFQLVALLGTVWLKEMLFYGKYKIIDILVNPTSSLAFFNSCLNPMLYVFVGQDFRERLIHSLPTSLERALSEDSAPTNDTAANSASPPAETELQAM
# procedure_text: Agonist activity at ALX/FPR2 in human THP1 cells harboring NF-kB-Luc assessed as inhibition of LPS-induced NFkB signalling activation by measuring reduction in IL-6 secretion pretreated for 30 mins followed by LPS stimulation for 24 hrs by electrochemiluminescence assay
# Type: cell-based
# measurement_parameters: read-out: IC50
// field semantics: pIC50 = negative decimal log of concentration (mol/L)

pIC50 for "CCC[C@@H](O)c1c(/C=C/[C@@H](O)[C@@H](O)CCCC(=O)OC)nc(C)n1C" is 7.25

pIC50 for "CCCCC[C@H](O)/C=C/C=C\C=C\C=C\[C@@H](O)[C@@H](O)CCCC(=O)O" is 8.77

pIC50 for "CCCCC[C@H](O)c1c(/C=C/[C@@H](O)[C@@H](O)CCCC(=O)OC)nc(C)n1C" is 7.22

pIC50 for "CCCCC[C@H](O)c1nc(-c2ccccc2)oc1/C=C/[C@@H](O)[C@@H](O)CCCC(=O)OC(C)C" is 7.50

pIC50 for "CCCCC[C@@H](O)c1nc(-c2ccccc2)n(-c2ccccc2)c1/C=C/[C@@H](O)[C@@H](O)CCCC(=O)OC" is 9.30

pIC50 for "CCCCC[C@@H](O)c1c(/C=C/[C@@H](O)[C@@H](O)CCCC(=O)OC)nc(C)n1C" is 7.12

pIC50 for "CCCCC[C@@H](O)c1nc(-c2ccccc2)oc1/C=C/[C@@H](O)[C@@H](O)CCCC(=O)OC(C)C" is 8.17

pIC50 for "CCCCC[C@H](O)c1nc(-c2ccccc2)n(-c2ccccc2)c1/C=C/[C@@H](O)[C@@H](O)CCCC(=O)OC" is 7.92
